Values from patent US20110287512

# Test system: ZFP7264 linker 1e center linker F2-F3 TGSQKP replaced by TVPRPTPPKP (artificial)
# PROTOCOL_TEXT: ELONA
# SETTINGS: normalized ELISA score
Binary call on binding signal: True from 1 upward, False beneath that.

As a guide, the following entries are already answered.
TTAGTTAAAGCGTTGCTCCGAATATC (double strand) [7264 target gap TT] ... False
TTAGTTAAAGCGGGCTCCGAATATC (double strand) [7264 target gap G] ... True
TTAGTTAAAGCGAGCTCCGAATATC (double strand) [7264 target gap A] ... True
TTAGTTAAAGCGGCTCCGAATATC (double strand) [7264 target 0-bp gap] ... False

Next up:
Is binding signal at least 1? Consider TTAGTTAAAGCGTGCTCCGAATATC (double strand) [7264 target gap T] True
